- System: DLG1_2, Q12959
- Sequence (Q12959 314-412): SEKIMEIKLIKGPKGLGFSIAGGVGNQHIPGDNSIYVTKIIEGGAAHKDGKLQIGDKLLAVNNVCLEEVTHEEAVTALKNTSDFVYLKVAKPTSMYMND
- Test method notes: holdup assay
- Set-up: key: below the threshold = too weak to quantify, mostly under pKd 3.1 to 4
- Experimental conditions: plain residues with an end cap or a label only (N-terminal biotin on a linker: ahx)
Endpoint name: pKd

1. SAPATLSSRA [PDLIM2, Q96JY6]    below the threshold
2. VNENQKEYFF [CNTNAP4, Q9C0A0]    below the threshold
3. KEYDDELTFF [USH1C, Q9Y6N9]    below the threshold
4. PKMKLNETSF [SHKBP1, Q8TBC3]    below the threshold

Please turn your attention to the following entry.
Query: // query pKd value for entry SKKNELFSNL [NHERF1, O14745]
Result: below the threshold
